Experiment: melting temperature (DSF); higher = more thermostable
value.type: melting temperature (C)
Your answer should be a plain number; it is taken to be in C.

Record excerpt, results attached:
{"residue.string": "AAGYERGPNPTSSALEATRGPFSVASTNVSSLSASGFGGGTIYYPTDTSQGTFGGVVIAPGYTASKSSMAWLAERLASHGFVVFNIDTITRSDQPDSRGRQILAAADHLAEESSSTVRRRLDASRIGVMGHSMGGGGTLAAADSRPSLKAAVPLTPWHLDKSWGNVRVPTMIIGAENDTIAAVGSHSEPFYNSLSAAPEKAYLELNGASHFAPNSDNDTIAKYGISWMKRFVDEDTRYDQFLCPAPGRSTTIEEYRSSCPHS [DP086]", "unit.of.measurement": "C", "melting temperature": 39.1}
{"residue.string": "ASPYQRGPNPTAASIAATTGPFAIASITVPRGNGFGGGVIYYPTSTSQGTFGGIAISPGLNGTWSGISWLGPRLASQGFVVFGIETNNLNDSPTSRGTQLLAALDYLTQRSSVRSRLDANRLAVMGHSMGGGGALDAALRRPTLKATIGNAPHLPSGSLANDRVPTLIYAMQNDTLVTPARLTSLYNTIPAATERAYIEVTGAGHNYIGQPSTTLARTMIPWLKIFIDSDTRYAPFLCPLNDRSGIRQYRNSCPLI [ESM128]", "unit.of.measurement": "C", "melting temperature": 66.4}
{"residue.string": "APPARVAALATTAYQRGPAPTLSGVRAALGPFSYSTASVSAAATGYTFGGGTVYYPDDTSQGTFGGIAVTPGYTGTEGSIAWLGPRLASQGFVVITIATKSLYDQPTARGQQLLAALDYLKTYSPAAVRQRLDPQRLAVSGHSMGGGGALYAVWSRPSLKAAVPLAPYHTIKNWSAITVPTLIEAGTADTVTPVGTFAEPIYQSLTGASERAYAEVAGANHLTFTAENPLIGGLEVAWMKRFVDDDARYDQFLCPAPTDPGLTEYRDSCPTS [TEP101]", "unit.of.measurement": "C", "melting temperature": 56.5}
{"residue.string": "TNPAPPSTPNPPAEESPYVRGPNPTVSFLEARSGPLSVRTSRVSSLVSGFGGGTIHYPTGTTGTMGAVVVIPGFVSAESSIDWWGPKLASHGFVVLTIDTNTGFDQPPSRARQINNALDYLVSQNSSRTSPVRGMIDTNRLGVIGWSMGGGGTLRVASEGRIKAAIPLAPWDTVSSYAANAQAPTLIFACQADIVAPVAAHASPFYNRLPNSIDKAYVEISGGSHYCANGGGLNNNVLSRFGVSWMKRFLDEDTRYSQFLCGPNHRSDRDIADYRGNCP [ESM172]", "unit.of.measurement": "C", "melting temperature": 49}

Here is the next item to consider.
What the record says about GTTASATTVSGTQAAAAQEYRRGPDPTAQSVEAATGPFAIQQTSVPAGNGFGGGTIYYPTDTSQGTFGAIAISPGWTEDQSAIAWLGPKLASNGFVVMTINNNNAFLDFPDARGTQLLAALDSLTGQSPVAGRIDKNRLAVAGHSMGGGGALRAAATRPEIQAAIPLTPWHLNQDWSSVRVPTLIVGGETDIIASVGAHSEPFYESLTNAPERAYLEMEGQGHFVTNSANPTVGRYVLSWLKRYVDNDTRYEQFLCPAPAPSSVISEYRDSCPGS [DP018] : melting temperature is 66.1

----------
Assay: PET hydrolysis, aromatic products released after 48 h (umol product/mg enzyme); higher = more PET depolymerization activity
Settings: substrate: cryPow; 40 °C; pH 6.5
# PET hydrolysis per record follows
Please give only the number in your answer, with no unit.

{"residue.string": "ADNPYERGPNPTQASIAASRGTFATAEVSVGGGNGFAAAKIYYPTDTSQGTFGAIAIVPGYTATWAAEGAWMGPWLASFGFVVIGIDTLSRNDFDTARGTQLLAALDYLTQRSSVRSRVDASRLAVMGHSMGGGGAISAALRRPSLKAAVGLAPFSPSQGTSGMRVPSMLLAGQRDGTVTPSSVRNLYNAIPATTEKAYLELTGAGHGFPTSANSVMMRKVIPWLKIFVDQDTRYQQFLCPLVDWTGITSYQSSCPLIPGGSTGTTYNLVNSSGKCADVNAASQVNGAALLLWTCHTNPNQRWTETSAKELRVYDNPKCMDAGAAQQGTRVTINSCSGGGSQKWTVNANGTVTNDLSGRCLGAAGGATTDNTPLVVASCDGSPGQQWTKQS [TEP093]", "PET hydrolysis": 31}

Consider now this further sequence.
So, FSAPGPSAPCSNCTRGPAPTVASLKASSGPFSTAKFSVSGYLKGFGNSTVYYPTNTSGKMGAIAVIPGYLSYESSIEWWGPRLASHGFVVMTMNTNSIYDQPDSRATQLSKALDYLISQSGSSSSPIYGKVDSSRLGAIGWSMGGGGSLKLSTQRSINAIIPQAPWYLGSNTFNTIKTPALILACSADTVAPVYQHASPFYNRIPTSTPKAFLEIYGGSHFCANSGYPNEDLLGMYGIAWMKRFIDFDSRYSQFLCGPNHESDYAISEYRQNCPY [ESM017] ? Its PET hydrolysis was 11

----------
Assay: PET hydrolysis, aromatic products released after 48 h (umol product/mg enzyme); higher = more PET depolymerization activity
Conditions: substrate: aFilm; 60 °C; pH 8.5
Each record here notes measured PET hydrolysis.

{"residue.string": "AGFEKGPDPTTASVTADRGSYDIAQVDVPKGSGTGFADGTIYYPKSTADGTFGAVAVIPGFLEPKSAIDWYGPRLASQGFVVMTLDTTSVFDTPDSRGGQLLAALDYLTSKSTVKDRIDPNRLAVVGHSMGGGGTLSAAANRPNLKAAVALAPWHVSAPLTSVKTPTMIFGSDNDFIAPDGTFAKPFYDGISNAPEKAYVRLKNAGHMAYVFPDKRIAEYTLSWLKRYVDDDTRYTQFLCPGPTNESTIAAYKSTCPM [DP093]", "PET hydrolysis": "< 3"}

Next item in the queue.
Briefly, PET hydrolysis measured for STRNQEPTLQSIEAARGPYEIATQSVPPAVNTGFGGGTIYYPATTGAGKFGAVALSPGYMEKEYSFSWLGTRLASQGFVVFIINTQNSEEFPSARTDELLASLNYLTQTSEVRDRVDPNRLAVMGHSMGGGAALEAAEKNQSLRAVISMTPWNIKTTYSDIKTPTLIIGAQYDNIAPVHDHAQPSYASLPNDLAKSYLELRNGNHFSPNMENTAIARSSTVWLKRFVDGDTRYNKFICPGPTVGDEFNIVQSNCPIL [DP079] : < 3

----------
Overview of recorded PET hydrolysis for various sequences
Experiment: PET hydrolysis, aromatic products released after 48 h (umol product/mg enzyme); higher = more PET depolymerization activity
Settings: substrate: cryPow; 60 °C; pH 7.5

Example entries begin here.
{"residue.string": "ADNPYERGPDPTERSIEAARGPFGVSTERVGSLGVSDFGGATIYHPTDRSQTYGAIAISPGFTAGWTSLSWLGERLASQGFVVIGIDTITRLDQPGSRGRQLLAALDYATTRSNARALIDAQRLAVAGHSMGGGGTLEAAAERPSLKAAIPLAPWNLDKSWAEVRTPTLIIGGESDNIAAVNTHSIPFYNSLSNAREKAYMEIDNGTHFFPNTANTLMAKYMISWMKRYIDDDTRYEQFLCPPPDDRGISEYRHTCPGS [DP088]", "value.type": "PET hydrolysis", "result.value": "< 3"}
{"residue.string": "MAENPYERGPAPTTSSIEASRGSFATSTVTVSRLAVSGFGGGTIYYPTSTTAGTFGAISIAPGFTALQSSIAWLGPRLASQGFVVFTIDTLTTSDQPDSRGRQLLAALDYLTQQSSVRSRIDSSRLGVVGHSMGGGGTLEAARSRPSLQAAIPLTGWNLTKTWSTVRVPTLVVGAQADTVAPVASHSIPFYNSLPSSLDKAYLELRGASHFAPNSSNTTIAKYTLSWLKRFIDNDTRYEQFLCPIPSTSLSISDYRGNCPHNG [TEP182]", "value.type": "PET hydrolysis", "result.value": 15.5}
{"residue.string": "ADNPYQRGPNPTQASIAANRGTFATAETSVGGGNGFGGAKIYYPTDTSQGTFGAIAVSPGYTATWAAEGAWMGHWLASFGFVVIGIDTINRNDREYARGTQLLAALDYLTQRSSVRTRVDPNRLAVMGHSMGGGGTISAALRRPTLKAAIGLAPYYPSQSTSGMQVPTMLLAGQNDGTSTPASIVTFYNDIPASTEKVYLELTGAGHGFPTSNNSVVTRKVIPWMKIFIDQDTRYTQFLCPLQDLTGIRTYRNSCPLLPNDPGTTFSLAGSASGKCADVPGRVQTNGTGLIIWTCNNAGNQQWTQTPAGELRIYGNTKCMDANASGQGARVTINTCNGGNSQKWTVNTNGTVTNAASGRCLDAGGTADNSPVVVNTCNAASGQTWTKRP [DP047]", "value.type": "PET hydrolysis", "result.value": "< 3"}

sequence GRVMAASDSGTAADERVYAEPSVDPASVGSAGRNPYERGPEPTLASVAAEYGPFDTDQLTVPPGHGFNGGYIYYPTDTSQTFGAVAIVPGYTALFADEEAWMGPRLASFGFVVIGIETNSRDDWDIARGEQLLAALDYLVHHSPVRARIDANRLAVVGHSMGGGGALFAATQRPSLKAVVALAPYFPSGSLAAIRVPTMIIGGQDDTVVTPSYLDDLYASRPAHTPGAYLMLADADHLFATRPNTVEMRLLIPWLKIFVDHDTRYTQFLCPVADRSGIARHHVT [TEP126] , PET hydrolysis observed: < 3

Looking up ANPYERGPNPTQALLEARSGPFSVSSERAWRLGSDGFGGGTIYYPRENNTYGAVAISPGYTGTQASVAWLGERIASHGFVVITIDTNTTLDQPDSRADQLEAALDHMVDGASSTVRSRIDRNRLAVMGHSMGGGGTLRLASQRPDLKAAIPLTPWHLNKSWSNVQVPTLIIGADLDTIAPVLTHAEPFYNSIPTSTRKAYLELDGATHFAPNITNSTIGMYSVAWLKRFVDEDTRYTQFLCPGPRTGLFSDVEEYRSTCPF [TEP014] , I found its PET hydrolysis recorded as < 3
